Reported values of DC50 for individual entries
- Tested Target: CDK2 (Homo sapiens)
- Construct: endogenous in cells; host or cells: MKN1 cells
- Assay: CDK2 degradation in MKN1 cells (AlphaLISA)
- Assay type: cell-based
- Protocol Conditions: 14 h incubation, read-out: CDK2 degradation 14 h: Mean external-Abs DC50

| Compound | DC50 |
| --- | --- |
| Cc1cc(S(=O)(=O)N(C)CCO[C@H]2CC[C@H](CN3CCC(c4ccc5c(c4)n(C)c(=O)n5C4CCC(=O)NC4=O)CC3)CC2)ccc1Nc1ncc2cc(Cl)c(=O)n(C3CCCC3)c2n1 (some centres unmarked) [I-435] | < 100 nM |
| Cc1cc(S(=O)(=O)NCCOC2CCC(N(C)CC3CCN(c4ccc5c(c4)n(C)c(=O)n5C4CCC(=O)NC4=O)CC3)CC2)ccc1Nc1ncc2ccc(=O)n(C3CCCC3)c2n1 (centres unmarked) [I-469] | < 100 nM |
| Cc1cc(S(=O)(=O)C2CC3(CCN(C(=O)COC4CN(c5ccc6c(c5F)n(C)c(=O)n6C5CCC(=O)NC5=O)C4)CC3)C2)ccc1Nc1ncc2ccc(=O)n(C3CCCC3)c2n1 (centres unmarked) [I-259] | > 1000 nM |

### Prompt Report DC50, nothing else, for this compound: Cc1cc(S(=O)(=O)N2CCC(CN(CC(F)F)C3CCN(c4cccc5c4n(C)c(=O)n5C4CCC(=O)NC4=O)CC3)CC2)ccc1Nc1ncc2cc(Cl)c(=O)n(C3CCCC34CC4)c2n1 (centres unmarked) [I-356]
### Response > 1000 nM

### Prompt Report DC50, nothing else, for this compound: Cc1cc(S(=O)(=O)N2CCC(N(C)CC3CCN(c4cccc5c4n(C)c(=O)n5C4CCC(=O)NC4=O)CC3)CC2)ccc1Nc1ncc2cc(Cl)c(=O)n(C3CCCC34CC4)c2n1 (centres unmarked) [I-359]
### Response < 100 nM

----------
- Tested Target: CDK2 (Homo sapiens, UniProt P24941)
- Construct: endogenous in cells; host or cells: MKN1 cells
- Assay: CDK2 degradation in MKN1 cells (AlphaLISA)
- Format: cell-based
- Protocol Conditions: 14 h incubation, read-out: CDK2 degradation 14 h: Mean external-Abs DC50
Endpoint Label: DC50

Before answering, review these 4 worked examples.
| Molecule | DC50 |
| --- | --- |
| Cn1c(=O)n(C2CCC(=O)NC2=O)c2ccc(N3CCC(CN4CCC(NS(=O)(=O)c5ccc(Nc6ncc(C(F)(F)F)c(N7CCCC(C)(O)C7)n6)c(F)c5)C(F)C4)CC3)cc21 (centres unmarked) | < 0.1 µM |
| Cc1cc(S(=O)(=O)NC(C)COC2CCC(CN3CC(c4cccc5c4n(C)c(=O)n5C4CCC(=O)NC4=O)C3)CC2)ccc1Nc1ncc(C(F)(F)F)c(N2CCCC(C)(O)C2)n1 (centres unmarked) | < 0.1 µM |
| Cc1cc(S(=O)(=O)N2CCN(CCC3CCN(c4cccc5c4n(C)c(=O)n5C4CCC(=O)NC4=O)CC3)CC2)ccc1Nc1ncc2cc(Cl)c(=O)n(C(C)C)c2n1 (centres unmarked) | 0.1 to 0.5 µM |
| Cc1cc(S(=O)(=O)NC2CCC(CN3CCN(c4cc(F)cc(NC5CCC(=O)NC5=O)c4)CC3)CC2)ccc1Nc1ncc(C(F)(F)F)c(N2CCCC(C)(O)C2)n1 (centres unmarked) [I-1122] | < 0.1 µM |

### Prompt Report DC50, nothing else, for this molecule: Cc1cc(S(=O)(=O)C2CC3(CCN(CC4CCN(c5ccc(NC6CCC(=O)NC6=O)cc5F)CC4)CC3)C2)ccc1Nc1ncc2cc(Cl)c(=O)n(C3CCCC3)c2n1 (centres unmarked) [I-152]
### Response < 0.1 µM
